biological target: M2R (Homo sapiens, UniProt P08172); test: cell-based; parameters: expressed in transfected cells; host or cells: HEK 293T
Sequence (P08172 whole entry): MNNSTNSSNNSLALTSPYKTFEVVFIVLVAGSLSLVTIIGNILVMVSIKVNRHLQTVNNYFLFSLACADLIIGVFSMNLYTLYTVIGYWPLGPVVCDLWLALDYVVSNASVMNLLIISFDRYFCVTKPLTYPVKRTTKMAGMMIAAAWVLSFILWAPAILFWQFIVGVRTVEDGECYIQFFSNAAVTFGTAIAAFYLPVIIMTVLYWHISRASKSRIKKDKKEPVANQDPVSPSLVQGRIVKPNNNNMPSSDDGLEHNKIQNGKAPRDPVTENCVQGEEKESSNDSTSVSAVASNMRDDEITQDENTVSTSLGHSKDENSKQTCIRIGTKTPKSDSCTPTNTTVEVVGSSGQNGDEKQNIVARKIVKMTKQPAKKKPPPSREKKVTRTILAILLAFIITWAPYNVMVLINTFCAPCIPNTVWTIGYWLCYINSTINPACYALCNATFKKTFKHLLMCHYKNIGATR
Readout type: EC50 (nM)
Answers are plain numbers, in nM.

Entry C[N+](C)(C)CC#CCOC1=NOCC1 [Ixo, iperoxo] has what EC50?
0.35

----------
molecular target: UniProtKB P08172; experiment: cell-based
Readout type: EC50 (nM)
Numbers only, in nM.

Entry C[N+](C)(C)CC#CCOC1=NOCC1 has what EC50?
0.31
